Target: T1, DPYSL4 peptide complexed with HLA-A*02:01 on T2 cells (human)
T1 construct: whole, on cells
Test: flow cytometry, peptide-loaded T2 cells;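 also: binding of single-chain Fv antibody constructs, raised in XenoMouse, to peptide-pulsed T2 cells measured by flow cytometry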
assay endpoint: Signal/background

>>> reported_value("18179-E1 (scFv, scFv in bacterial lysate, detected with anti-Flag M2) scFv: EVQLLESGGGLVQPGGSLRLSCAASGFTFSNAWMSWVRQAPGKGLEWVGRIKGNTYGGTTDYAAPVKGRFTISRDDSKNTLYLQMNSLKTEDTAVYYCTTPSYSGSYYNYFSVMDVWGQGTTVTVSSGGGGSGGGGSGGGGSELVMTQSPSSLSASVGDRVTITCRTSQSISSYLNWYQQKPGRAPKLLIFAASSLQGGVPSRFSGSGSGTDFTLTISSLQPEDFATYYCQQTYSMPFTFGPGTKVDIK")
1
>>> reported_value("18182-G6 (scFv, scFv in bacterial lysate, detected with anti-Flag M2) scFv: EVQLLESGGGLVQPGGSLRLSCAASGFTFSSYAMSWVRQAPGKGLEWVSAISGSGGGTYYADSVKGRFTISRDNSKNTLYLQMNSLRAEDTAAYYCVTGKGVHLGFDYWGQGTLVTVSSGGGGSGGGGSGGGGSELVLTQPPSVSVAPGQTARITCGGNNIGSKSVHWHQQKPGQSPVLVIYDDNDRPSGIPERFSGFNSGNTATLTISRVEAGDEADYYCQVWDSSSDHVVFGGGTKLTVL")
1
>>> reported_value("18089-C9 (scFv, scFv in bacterial lysate, detected with anti-Flag M2) scFv: EVQLLESGPTLVKPTQTLTLTCTFSGFSFTTHKMGVDWIRQPPGKALEWLALIYWNDDKRYSPSLQSRLTITKDTSKNQVVLTMTNMDPVDTATYYCAYRRYNWNYENWFDPWGQGTLVTVSSGGGGSGGGGSGGGGSELQMTQSPSSLSASVGDRVTITCRASQFISSYLNWYQQKPGKAPKLLIYAASSLQSGVPSRFSGRGSGTDFTLTISSLQPEDFATYYCQQSYSTPFTFGPGTKVEIK")
0.9
>>> reported_value("18179-D11 (scFv, scFv in bacterial lysate, detected with anti-Flag M2) scFv: EVQLLESGGGLVKPGGSLRLSCAASGFTFSNAWMSWVRQAPGKGLEWVGRIKGNTYGGTTDYAAPVKGRFTISRDDSKNTLFLQMNSLKTEDTAVYYCTTPSYSGSYYNYFSVMDVWGQGTTVTVSSGGGGSGGGGSGGGGSELQMTQSPSSLSASVGDRVTITCRTSQSISSYLNWYQQKPGRAPKLLIFAASSLQGGVPSRFSGSGSGTDFTLTISSLQPEDFATYYCQQTYSMPFTFGPGTKVDIK")
1.1
>>> reported_value("18182-B12 (scFv, scFv in bacterial lysate, detected with anti-Flag M2) scFv: EVQLLESGGGLVQPGGSLRLSCAASGFTFSSYAMSWVRQAPGKGLEWVSAISGSGGGTYYADSVKGRFTISRDNSKNTLYLQMSSLRAEDTAVYYCATGKGVHLGFDYWGQGTLVTVSSGGGGSGGGGSGGGGSELVLTQPPSVSVAPGQTARITCGGNNIGSKSVHWHQQKPGQAPVLVVYDDNDRPSGIPERFSGSNSGNTATLTISRVEAGDEADYYCQVWDYSSDHVVFGGGTKLTVL")
1

Hello, the source for this data is patent US20220017636A1, in case you need it.
